Taken from paper PMC3640342.

# experiment: Single-dose oral gavage PK at 10 mg/kg
# Format: in vivo, FVB mice
# particulars: female, FVB, mouse, plasma, po, 10 mg/kg
property-label: tmax (min)
One number for each entry, in min.

I'd like to know its tmax. The molecule in question is C(=N\Nc1ccc(-c2cnco2)cc1)/c1ccncc1 [Compd B, reference compound]
30

----------
What Papp (A−B) was measured for each of the following?
# Test system: MDCK-MDR1 cells
# experiment: Bidirectional MDCK-MDR1 cell permeability
# Format: in vitro ADME, canine
# particulars: 10 μM, pH 7.4
Give bare numbers, in ×10⁻⁶ cm/s.

Here's what some known entries look like.
{"smiles-entry": "Cc1cccc(Nc2nc(-c3cc4ccccc4o3)cs2)n1", "Papp (A−B) [×10⁻⁶ cm/s]": 9.5}
{"smiles-entry": "c1ccc2cc(Nc3nc(-c4ccncc4)cs3)ncc2c1", "Papp (A−B) [×10⁻⁶ cm/s]": 3.03}
{"smiles-entry": "COc1ccc(-c2csc(Nc3ccc4ccccc4n3)n2)cc1OC", "Papp (A−B) [×10⁻⁶ cm/s]": 9.2}
{"smiles-entry": "Cc1ccc(Nc2nc(-c3cc(-c4ccccc4)no3)cs2)nc1", "Papp (A−B) [×10⁻⁶ cm/s]": 6.8}

Below: the item to evaluate.
Look up Papp (A−B) with MDCK-MDR1 cells for this compound: Cc1ccnc(Nc2nc(-c3ccncc3)cs2)c1
36.2
